Molecular target: T1, human VEGF (hVEGF) (human, UniProt P15692 181-395);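 note: fab variants injected over immobilized hVEGF on a CM5 chip, rate constants fitted with a one-to-one Langmuir model, Kd derived as koff over kon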
T1 construct: also called VEGF-A
T1 sequence: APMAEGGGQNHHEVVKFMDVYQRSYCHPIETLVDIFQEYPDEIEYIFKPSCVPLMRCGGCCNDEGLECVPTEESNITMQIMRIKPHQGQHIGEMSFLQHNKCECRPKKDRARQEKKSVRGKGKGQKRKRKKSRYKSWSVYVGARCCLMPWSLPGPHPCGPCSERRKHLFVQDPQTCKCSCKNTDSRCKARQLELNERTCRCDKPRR
Assay: SPR
Here the recorded koff is given for each entry.
Please give a number only; it is taken to be in s⁻¹.

Entry HCLC1 (Fab, V domains shown, Fab) VH: EEQLVEEGGGLVQPGESLELSCAASGFEISDYWIHWVRQEPGEGLEWVAGITPAGGYEYYADSVEGRFTISADTSENTAYLQMNELRAEDTAVYYCARFVFFLPYAMDYWGQGELVTVSS VL: DIQMTQSPESLSASVGDEVTITCRASQDVSTAVAWYQQKPGKAPKLLIYSASFLYSGVPSRFSGSGSGTDFTLTISSLQPEDAATYYCQQGYGAPFTFGQGTKVEIK , koff reported as 0.000607

The binder identified as HCLC2 (Fab, V domains shown, Fab) VH: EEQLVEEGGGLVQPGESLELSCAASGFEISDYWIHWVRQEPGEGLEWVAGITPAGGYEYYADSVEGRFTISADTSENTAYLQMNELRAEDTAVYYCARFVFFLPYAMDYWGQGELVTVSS VL: DIQMTQSPSSLSASVGDEVTITCRASQDVSTAVAWYQQKPGEAPKLLIYSASFLYSGVPSRFSGSGSGTDFTLTIESLQPEDAATYYCQQGYGAPFTFGQGTKVEIK registered its koff at 0.000623

Now for another entry.
response.value for HCLC5 (Fab, V domains shown, Fab) VH: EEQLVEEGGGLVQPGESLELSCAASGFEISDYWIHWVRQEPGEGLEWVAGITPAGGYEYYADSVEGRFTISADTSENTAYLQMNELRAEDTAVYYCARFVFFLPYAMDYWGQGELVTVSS VL: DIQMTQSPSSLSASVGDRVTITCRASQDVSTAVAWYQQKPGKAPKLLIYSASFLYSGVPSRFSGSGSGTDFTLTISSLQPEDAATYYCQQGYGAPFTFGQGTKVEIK (field: koff) = 0.000573
